# System Name: BRD4-BD1 (Homo sapiens, UniProt O60885)
# Construct: with the first bromodomain of BRD4 (BRD4-BD1) were solved; 6xHis (N)
# Assay Overview: ALPHA screen assay, displacement of BRD4-BD1 from acetylated H4 peptide
// reported IC50 for each item listed
The answer is to be given in nM; state only the numeric part.

Prompt: Reported IC50, molecule CC(=O)Nc1cc(Cn2ccnc2)c2cccc(O)c2n1 : ____
Response: 287

Prompt: Give its IC50 value. Item: O=[N+]([O-])c1ccc(O)c2ncccc12
Response: 980

###

# Test system: Caki cells
# Assay Overview: Alamar Blue viability assay, Caki
# Type: cell-based
# Condition Set: 168 h, treatment for 7 days, read-out: IC50, cell viability
Metric: pIC50
# pIC50 is unitless: minus log10 of the molar concentration; print number only

Prompt: What does the data say about its pIC50? Entry: CC(=O)Nc1cc(Cn2ccnc2)c2cccc(O)c2n1
Response: 5.45

Sourced from paper PMC6212493
